The entries below come with measured EC50, FRET short substrate assay values attached.
system.under.test: BACE1 ECD (as used in the enzyme activity assay) (UniProt P56817 22-457, limits assumed)
Sequence (P56817 22-457 limits assumed): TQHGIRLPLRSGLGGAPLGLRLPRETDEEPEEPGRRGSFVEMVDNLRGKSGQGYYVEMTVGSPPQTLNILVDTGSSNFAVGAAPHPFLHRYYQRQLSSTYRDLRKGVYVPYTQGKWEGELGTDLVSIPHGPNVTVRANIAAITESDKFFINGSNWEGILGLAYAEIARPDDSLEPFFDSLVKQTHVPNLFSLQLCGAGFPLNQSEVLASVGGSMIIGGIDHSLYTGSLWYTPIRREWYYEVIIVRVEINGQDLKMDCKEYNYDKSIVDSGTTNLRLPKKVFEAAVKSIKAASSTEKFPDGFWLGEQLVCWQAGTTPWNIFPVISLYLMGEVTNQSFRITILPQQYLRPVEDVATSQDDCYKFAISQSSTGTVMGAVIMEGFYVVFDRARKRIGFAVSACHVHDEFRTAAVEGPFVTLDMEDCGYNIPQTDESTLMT
method.description: cell-based or functional assay
Answer in nM, number only, no unit symbol.

binder: 5894 (antibody, V domains shown) VH: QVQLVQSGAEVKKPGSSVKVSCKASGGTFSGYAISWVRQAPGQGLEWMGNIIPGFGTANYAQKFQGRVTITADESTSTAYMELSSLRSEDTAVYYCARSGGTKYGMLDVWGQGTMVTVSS VL: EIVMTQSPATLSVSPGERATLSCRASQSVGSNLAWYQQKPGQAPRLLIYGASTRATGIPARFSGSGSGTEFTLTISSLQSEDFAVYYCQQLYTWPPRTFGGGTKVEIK
measured: 8.58

binder: 5891 (antibody, V domains shown) VH: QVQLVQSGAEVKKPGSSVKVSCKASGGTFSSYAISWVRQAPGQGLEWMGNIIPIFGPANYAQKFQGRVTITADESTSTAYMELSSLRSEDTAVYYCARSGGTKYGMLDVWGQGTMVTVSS VL: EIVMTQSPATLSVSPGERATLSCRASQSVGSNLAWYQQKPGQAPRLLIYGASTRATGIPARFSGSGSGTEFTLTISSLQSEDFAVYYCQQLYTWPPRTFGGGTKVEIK
measured: 12.4

Lookup result for 5893 (antibody, V domains shown) VH: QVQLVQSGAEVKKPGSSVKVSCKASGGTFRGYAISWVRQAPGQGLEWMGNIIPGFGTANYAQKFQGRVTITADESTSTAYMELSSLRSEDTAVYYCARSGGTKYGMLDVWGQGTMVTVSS VL: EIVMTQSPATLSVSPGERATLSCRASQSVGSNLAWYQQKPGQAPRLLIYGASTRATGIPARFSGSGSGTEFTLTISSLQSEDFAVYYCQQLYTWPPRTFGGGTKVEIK ; measured EC50, FRET short substrate assay: 8.84
